Data provenance: the supplement of paper PMC7877785

Measurement Protocol: self-splicing fitness, log relative to wild type (ln ratio); higher = more splicing; Tetrahymena group I intron in knt gene, E. coli kanamycin selection, DiMSum; sequences stand for … in CUCUCU…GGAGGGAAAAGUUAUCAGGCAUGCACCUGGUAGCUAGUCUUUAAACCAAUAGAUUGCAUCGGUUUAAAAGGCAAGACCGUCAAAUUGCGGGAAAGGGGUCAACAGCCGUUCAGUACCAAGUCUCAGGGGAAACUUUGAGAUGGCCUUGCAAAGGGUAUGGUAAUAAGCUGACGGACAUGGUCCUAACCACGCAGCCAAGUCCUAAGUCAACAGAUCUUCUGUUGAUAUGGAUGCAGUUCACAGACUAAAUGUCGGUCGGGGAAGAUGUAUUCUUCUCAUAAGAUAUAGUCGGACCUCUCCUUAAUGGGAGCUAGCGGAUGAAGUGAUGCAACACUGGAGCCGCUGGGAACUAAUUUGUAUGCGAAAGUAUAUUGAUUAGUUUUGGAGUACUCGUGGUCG;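 also: selection with 25 µg/mL kanamycin versus none on LB agar overnight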
Details: 30 °C
Readout: self-splicing fitness (ln)

Chain: UAAGAGCAAUAUUACGGAAG
Test Value: -2.8

Chain: GGGUAGCAAUAUUACGGAGC
Test Value: -1.42

Chain: GACUAGCAAUAUUACGUACU
Test Value: -1.13

Chain: GCGCAGCAAUAUUACGAAAC
Test Value: -0.473

Chain: GUCUAGCAAUAUUACGAUAU
Test Value: -0.897

Chain: CAGUAGCAAUAUUACGGAAA
Test Value: -3.56

Chain: GUCAAGCAAUAUUACGACGC
Test Value: -1.35

Chain: CUUCAGCAAUAUUACGAUGU
Test Value: -3.67

Chain: AGUUAGCAAUAUUACGACCA
Test Value: -0.921
